The origin of these recorded values is patent US20240287124A1.

- Tested on: HIV-1 wild-type (R8) virus
- protocolNotes: Viral KINetics in Green cells (VIKING) assay, HIV-1 replication in MT4-GFP reporter cells
- Assay type: cell-based
- experimentalConditions: Human immunodeficiency virus 1, 10% normal human serum, MT4-GFP cells, HIV-1 wild-type (R8); read-out: Viking (10% NHS), IC50
pIC50: −log10 of the molar value.
// label = yes if pIC50 is not less than 8, otherwise no

[
  {
    "givenSmiles": "C#C[C@]1(CO)O[C@@H](n2ccc3c(NC(=O)CCCC)nc(Cl)nc32)C[C@@H]1O",
    "assignedClass": "no"
  },
  {
    "givenSmiles": "C#C[C@]1(COC(=O)OCCCCCCCCCC)O[C@@H](n2ccc3c(N)nc(Cl)nc32)C[C@@H]1OC(=O)OCCCCCCCCCC",
    "assignedClass": "no"
  },
  {
    "givenSmiles": "C#C[C@]1(COC(=O)OCCCCCCC)O[C@@H](n2ccc3c(N)nc(Cl)nc32)C[C@@H]1O",
    "assignedClass": "yes"
  },
  {
    "givenSmiles": "C#C[C@]1(COC(=O)OCCCCC[C@@H]2SC[C@@H]3NC(=O)N[C@@H]32)O[C@@H](n2ccc3c(N)nc(Cl)nc32)C[C@@H]1OC(=O)OCCC12CC3CC(CC(C3)C1)C2",
    "assignedClass": "no"
  },
  {
    "givenSmiles": "C#C[C@]1(CO)O[C@@H](n2ccc3c(N)nc(Cl)nc32)C[C@@H]1OC(=O)CCCCCC",
    "assignedClass": "yes"
  },
  {
    "givenSmiles": "C#C[C@]1(CO)O[C@@H](n2ccc3c(N)nc(Cl)nc32)C[C@@H]1OC(=O)OCc1ccc[nH]c1=O",
    "assignedClass": "yes"
  },
  {
    "givenSmiles": "C#C[C@]1(CO)O[C@@H](n2ccc3c(NC(=O)OCCc4ccccc4)nc(Cl)nc32)C[C@@H]1O",
    "assignedClass": "no"
  },
  {
    "givenSmiles": "C#C[C@]1(COC(=O)OCc2ccn(C)c(=O)c2)O[C@@H](n2ccc3c(N)nc(Cl)nc32)C[C@@H]1O",
    "assignedClass": "yes"
  },
  {
    "givenSmiles": "C#C[C@]1(COC(=O)OC(CC)CC)O[C@@H](n2ccc3c(N)nc(Cl)nc32)C[C@@H]1OC(=O)OC(CC)CC",
    "assignedClass": "no"
  }
]

---

We begin with a simple list: items and their reported IC50.
- Tested on: HIV-1 wild-type (R8) virus
- protocolNotes: Viral KINetics in Green cells (VIKING) assay, HIV-1 replication in MT4-GFP reporter cells
- Type: cell-based
- experimentalConditions: Human immunodeficiency virus 1, 10% normal human serum, MT4-GFP cells, HIV-1 wild-type (R8); read-out: Viking (10% NHS), IC50

[
  {
    "compound": "C#C[C@]1(COC(=O)OCc2cccn(C)c2=O)O[C@@H](n2ccc3c(N)nc(Cl)nc32)C[C@@H]1OC(=O)OCc1ccccc1 [Example 93]",
    "IC50 (nM)": 7.8
  },
  {
    "compound": "C#C[C@]1(COC(=O)OCc2cc[nH]c(=O)c2)O[C@@H](n2ccc3c(N)nc(Cl)nc32)C[C@@H]1OC(=O)OCc1cc[nH]c(=O)c1 [Example 225]",
    "IC50 (nM)": 13
  },
  {
    "compound": "C#C[C@]1(CO)O[C@@H](n2ccc3c(N)nc(Cl)nc32)C[C@@H]1OC(=O)CCCCCCC [Example 24]",
    "IC50 (nM)": 1.7
  },
  {
    "compound": "C#C[C@]1(CO)O[C@@H](n2ccc3c(N)nc(Cl)nc32)C[C@@H]1OC(=O)CCCCCCCCC [Example 4]",
    "IC50 (nM)": 2.9
  },
  {
    "compound": "C#C[C@]1(CO)O[C@@H](n2ccc3c(N)nc(Cl)nc32)C[C@@H]1OC(=O)OCCC12CC3CC(CC(C3)C1)C2 [Example 36]",
    "IC50 (nM)": 5.5
  },
  {
    "compound": "C#C[C@]1(COC(=O)CCCCC)O[C@@H](n2ccc3c(N)nc(Cl)nc32)C[C@@H]1OC(=O)CCCC[C@@H]1SC[C@@H]2NC(=O)N[C@@H]21 [Example 191]",
    "IC50 (nM)": 20
  }
]

---

We begin with a simple list: items and their reported solubility at 24 h.
- protocolNotes: Aqueous solubility in PBS, pH 7.4
- Type: physicochemical
- experimentalConditions: phosphate buffered saline, pH 7.4, aqueous buffer, thermodynamic from solid, pH 7.4 phosphate buffered saline, 24 hours, amorphous or crystalline material; read-out: Aqu. Solubility

[
  {
    "givenSmiles": "C#C[C@]1(COC(=O)OCCCCCCCCCCCC)O[C@@H](n2ccc3c(N)nc(Cl)nc32)C[C@@H]1O",
    "ltGtEq": "<",
    "solubility at 24 h / µg/mL": 1
  },
  {
    "givenSmiles": "C#C[C@]1(CO)O[C@@H](n2ccc3c(N)nc(Cl)nc32)C[C@@H]1OC(=O)OCCCCCCCC",
    "ltGtEq": "<",
    "solubility at 24 h / µg/mL": 1
  },
  {
    "givenSmiles": "C#C[C@]1(COC(=O)OCCc2ccccc2)O[C@@H](n2ccc3c(N)nc(Cl)nc32)C[C@@H]1O",
    "ltGtEq": "=",
    "solubility at 24 h / µg/mL": 71
  },
  {
    "givenSmiles": "C#C[C@]1(CO)O[C@@H](n2ccc3c(N)nc(Cl)nc32)C[C@@H]1OC(=O)C1CCCCC1",
    "ltGtEq": "=",
    "solubility at 24 h / µg/mL": 14
  },
  {
    "givenSmiles": "C#C[C@]1(CO)O[C@@H](n2ccc3c(N)nc(Cl)nc32)C[C@@H]1OC(=O)CC1CCCCC1",
    "ltGtEq": "<",
    "solubility at 24 h / µg/mL": 1
  },
  {
    "givenSmiles": "C#C[C@]1(CO)O[C@@H](n2ccc3c(N)nc(Cl)nc32)C[C@@H]1OC(=O)CCCC",
    "ltGtEq": "=",
    "solubility at 24 h / µg/mL": 27
  },
  {
    "givenSmiles": "C#C[C@]1(CO)O[C@@H](n2ccc3c(N)nc(Cl)nc32)C[C@@H]1OC(=O)OCCCCC[C@@H]1SC[C@@H]2NC(=O)N[C@@H]21",
    "ltGtEq": "<",
    "solubility at 24 h / µg/mL": 1
  }
]

---

- System: HIV-1 wild-type (R8) virus
- protocolNotes: Viral KINetics in Green cells (VIKING) assay, HIV-1 replication in MT4-GFP reporter cells
- Assay type: cell-based
- experimentalConditions: Human immunodeficiency virus 1, 10% normal human serum, MT4-GFP cells, HIV-1 wild-type (R8); read-out: Viking (10% NHS), IC50
pIC50: −log10 of the molar value.
// label = met if pIC50 is not less than 8, otherwise not met

[
  {
    "givenSmiles": "C#C[C@]1(COC(=O)C23CC(C2)C3)O[C@@H](n2ccc3c(N)nc(Cl)nc32)C[C@@H]1OC(=O)C12CC(C1)C2",
    "assignedClass": "met"
  },
  {
    "givenSmiles": "C#C[C@]1(CO)O[C@@H](n2ccc3c(N)nc(Cl)nc32)C[C@@H]1OC(=O)OC",
    "assignedClass": "not met"
  },
  {
    "givenSmiles": "C#C[C@]1(COC(=O)OCc2ccccc2)O[C@@H](n2ccc3c(N)nc(Cl)nc32)C[C@@H]1OC(=O)CCCCC",
    "assignedClass": "met"
  },
  {
    "givenSmiles": "C#C[C@]1(COCOC(=O)c2ccccc2)O[C@@H](n2ccc3c(N)nc(Cl)nc32)C[C@@H]1OC(=O)c1ccccc1",
    "assignedClass": "not met"
  },
  {
    "givenSmiles": "C#C[C@]1(COC(=O)[C@H](C)c2ccccc2)O[C@@H](n2ccc3c(N)nc(Cl)nc32)C[C@@H]1OC(=O)[C@H](C)c1ccccc1",
    "assignedClass": "not met"
  },
  {
    "givenSmiles": "C#C[C@]1(COCOC(=O)c2ccccc2)O[C@@H](n2ccc3c(N)nc(Cl)nc32)C[C@@H]1OCOC(=O)c1ccccc1",
    "assignedClass": "met"
  },
  {
    "givenSmiles": "C#C[C@]1(COC(=O)OCc2ccccc2)O[C@@H](n2ccc3c(N)nc(Cl)nc32)C[C@@H]1OC(C)=O",
    "assignedClass": "not met"
  }
]

---

- protocolNotes: Aqueous solubility in PBS, pH 7.4
- Assay type: physicochemical
- experimentalConditions: phosphate buffered saline, pH 7.4, aqueous buffer, thermodynamic from solid, pH 7.4 phosphate buffered saline, 24 hours, amorphous or crystalline material; read-out: Aqu. Solubility

[
  {
    "givenSmiles": "C#C[C@]1(CO)O[C@@H](n2ccc3c(N)nc(Cl)nc32)C[C@@H]1OC(=O)OCCCCCC",
    "solubility at 24 h": "< 1 µg/mL"
  },
  {
    "givenSmiles": "C#C[C@]1(CO)O[C@@H](n2ccc3c(N)nc(Cl)nc32)C[C@@H]1OC(C)=O",
    "solubility at 24 h": "257 µg/mL"
  },
  {
    "givenSmiles": "C#C[C@]1(COC(=O)C(C)C)O[C@@H](n2ccc3c(N)nc(Cl)nc32)C[C@@H]1OC(=O)C(C)C",
    "solubility at 24 h": "< 1 µg/mL"
  },
  {
    "givenSmiles": "C#C[C@]1(COC(=O)OCC23CC4CC(CC(C4)C2)C3)O[C@@H](n2ccc3c(N)nc(Cl)nc32)C[C@@H]1O",
    "solubility at 24 h": "< 1 µg/mL"
  }
]
